Where do the numbers come from? From patent US10870619B2.

# reported.conditions: crystals obtained by the crystallization process of the respective example (pH adjustment, coagulant, pH readjustment, cooling rate vary)
# Method: As used herein, the term “bulk density” refers to the density measured based on the volume including voids generated between particles when powder is filled into a container. In particular, the density of powder which is measured after treating the powder by tapping a cylinder filled with the powder with a constant force so as to make the powder within the cylinder dense is called tapped bulk density (hereinafter, “BD”).
parameter.measured: BD (tapped bulk density) of the obtained L-methionine crystals
Put your answer as a value accompanied by its unit after it.

>  <molecule>
CSCC[C@H](N)C(=O)O [Comparative Example 7, L-methionine, reference compound]

>  <result>
510 g/L

$$$$

Give its BD (tapped bulk density) of the obtained L-methionine crystals value. Item: CSCC[C@H](N)C(=O)O [Comparative Example 1, L-methionine, reference compound]
190 g/L

# get_value(readout='BD (tapped bulk density) of the obtained L-methionine crystals', item= CSCC[C@H](N)C(=O)O [Example 6, L-methionine] )
580 g/L

Would you mind telling me what BD (tapped bulk density) of the obtained L-methionine crystals value was observed for CSCC[C@H](N)C(=O)O [Example 22, L-methionine] ?
700 g/L

# get_value(readout='BD (tapped bulk density) of the obtained L-methionine crystals', item= CSCC[C@H](N)C(=O)O [Example 10, L-methionine] )
580 g/L
